Target: T1, Human P-cadherin on cells (human, UniProt P22223 108-829)
T1 construct: whole, on cells; Endogenous P-cadherin on tumour cell lines; also called hPro1
T1 sequence (P22223 108-829): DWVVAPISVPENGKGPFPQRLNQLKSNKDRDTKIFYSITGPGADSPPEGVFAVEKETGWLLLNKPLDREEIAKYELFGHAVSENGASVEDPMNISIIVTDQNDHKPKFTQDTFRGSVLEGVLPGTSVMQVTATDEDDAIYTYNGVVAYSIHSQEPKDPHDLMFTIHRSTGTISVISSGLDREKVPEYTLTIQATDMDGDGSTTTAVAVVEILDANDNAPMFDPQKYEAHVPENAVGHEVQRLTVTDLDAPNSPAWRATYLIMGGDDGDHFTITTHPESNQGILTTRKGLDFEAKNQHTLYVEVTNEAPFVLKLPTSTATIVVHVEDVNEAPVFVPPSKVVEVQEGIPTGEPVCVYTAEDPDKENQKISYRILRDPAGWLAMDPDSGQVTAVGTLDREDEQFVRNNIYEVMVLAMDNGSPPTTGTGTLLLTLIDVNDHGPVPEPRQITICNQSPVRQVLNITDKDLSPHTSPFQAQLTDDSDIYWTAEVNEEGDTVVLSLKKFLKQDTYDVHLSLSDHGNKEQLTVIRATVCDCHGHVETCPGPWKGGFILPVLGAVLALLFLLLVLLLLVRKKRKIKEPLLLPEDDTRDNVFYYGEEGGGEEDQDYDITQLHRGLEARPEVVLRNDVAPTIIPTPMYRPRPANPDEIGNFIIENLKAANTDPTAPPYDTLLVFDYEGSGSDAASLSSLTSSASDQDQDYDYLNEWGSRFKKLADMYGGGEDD
Assay: FACS on DU-145 cells
readout: Max MFI

binder	readout	test_value
W3195-1.53.1-p4-uIgG1LV320 (antibody, V domains shown, V320 = IgG1 Fc with L234A/L235A; also called W3195-1.53.1-p4-uIgG1V320; W3195-p4-V320 antibody) VH: QVQLQESGPGLVKPSETLSLTCTVSGGSVISDNYYWTWVRQPPGKGLEFIGYIYYRGSTNYNPSLKNRVIISIDTSRNQFSLDLNSVTAADTAVYYCARDRRTGNALPFDNWGQGTLVTVSS VL: SYELTQPPSVSVSPGQTAQITCSGDKLGDKFASWYQQKSGQSPVVVIYQDNKRPSGFPERFSGSNSGNTATLTISGTQAMDEADYYCQAWDSSIVVFGGGTKLTVLG	Max MFI	2160
W3195-1.53.1-p7-uIgG1LV320 (antibody, V domains shown, also called W3195-1.53.1-p7-uIgG1V320; W3195-p7-V320 antibody) VH: QVQLQESGPGLVKPSETLSLTCTVSGGSVISDNYYWTWVRQPPGKGLEFIGYIYYRGSTNYNPSLKNRVIISIDTSRNQFSLDLNSVTAADTAVYYCARDRRTGSSLPFDNWGQGTLVTVSS VL: SYELTQPPSVSVSPGQTAQITCSGDKLGDKFASWYQQKSGQSPVVVIYQDNKRPSGFPERFSGSNSGNTATLTISGTQAMDEADYYCQAWDSSIVVFGGGTKLTVLG	Max MFI	2280
W3195-1.53.1-p6-uIgG1LV320 (antibody, V domains shown, also called W3195-1.53.1-p6-uIgG1V320; W3195-p6-V320 antibody) VH: QVQLQESGPGLVKPSETLSLTCTVSGGSVISDNYYWTWVRQPPGKGLEFIGYIYYRGSTNYNPSLKNRVIISIDTSRNQFSLDLNSVTAADTAVYYCARDRRTGTSLPFDNWGQGTLVTVSS VL: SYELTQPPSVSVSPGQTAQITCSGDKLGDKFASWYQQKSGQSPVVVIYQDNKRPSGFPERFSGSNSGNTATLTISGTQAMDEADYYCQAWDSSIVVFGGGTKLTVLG	Max MFI	2290
W3195-1.53.1-p5-uIgG1LV320 (antibody, V domains shown, also called W3195-1.53.1-p5-uIgG1V320; W3195-p5-V320 antibody) VH: QVQLQESGPGLVKPSETLSLTCTVSGGSVISDNYYWTWVRQPPGKGLEFIGYIYYRGSTNYNPSLKNRVIISIDTSRNQFSLDLNSVTAADTAVYYCARDRRTGQSLPFDNWGQGTLVTVSS VL: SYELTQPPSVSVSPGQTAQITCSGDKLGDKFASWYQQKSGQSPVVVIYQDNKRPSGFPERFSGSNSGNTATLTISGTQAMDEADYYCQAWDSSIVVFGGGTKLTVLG	Max MFI	2240
